- assayed-target: GPR17 (Homo sapiens)
- Sequence (Q13304 29-367 limits assumed): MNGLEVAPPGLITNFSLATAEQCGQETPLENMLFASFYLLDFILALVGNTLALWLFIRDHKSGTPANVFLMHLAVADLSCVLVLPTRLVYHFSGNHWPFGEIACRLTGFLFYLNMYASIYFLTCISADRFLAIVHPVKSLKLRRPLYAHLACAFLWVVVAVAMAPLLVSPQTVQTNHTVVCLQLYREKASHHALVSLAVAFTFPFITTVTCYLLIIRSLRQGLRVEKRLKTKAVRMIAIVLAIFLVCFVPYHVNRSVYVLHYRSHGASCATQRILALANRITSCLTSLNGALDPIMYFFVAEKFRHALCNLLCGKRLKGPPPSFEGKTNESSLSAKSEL
- assay-comment: Calcium mobilization functional assay (Ca2+ assay) in CHO hGPR17 cells
- Type: cell-based
- Parameters: host or cells: Flp-In T-REx CHO cells, expression induced with doxycycline
- condition-context: inhibition of 50 nM MDL29,951 (GPR17 agonist), activity range, read-out: Ca^2+ assay pIC50 (converted)
measured-endpoint: IC50

molecule="O=S(=O)(Nc1ccc(I)nc1)c1c[nH]c2cc(Cl)ccc12 [Example I-21]" measured_endpoint=IC50 result="0.0316 to 0.316 µM"

Form: Entry = O=S(=O)(Nc1ccc(Br)nc1)c1c[nH]c2cc(Cl)ccc12 [Example I-20] | System = GPR17 (Homo sapiens) | IC50 = ____
0.0316 to 0.316 µM

Form: Entry = O=S(=O)(Nc1ccc(Cl)nc1)c1c[nH]c2cc(Cl)ccc12 [Example I-24] | System = GPR17 (Homo sapiens) | IC50 = ____
0.0316 to 0.316 µM

Form: Entry = O=S(=O)(Nc1cnc(Cl)c(F)c1)c1c[nH]c2cc(Cl)ccc12 [Example I-23] | System = GPR17 (Homo sapiens) | IC50 = ____
0.0316 to 0.316 µM

Form: Entry = COc1nc(Br)cnc1NS(=O)(=O)c1c[nH]c2cc(Cl)ccc12 [Example I-10] | System = GPR17 (Homo sapiens) | IC50 = ____
≤ 0.00316 µM

Form: Entry = COc1nc(OC)c(NS(=O)(=O)c2c[nH]c3nc(Cl)ccc23)cc1F [Example I-34] | System = GPR17 (Homo sapiens) | IC50 = ____
0.00316 to 0.0316 µM

Form: Entry = COc1ccc(NS(=O)(=O)c2c[nH]c3cc(Cl)ccc23)cn1 [Example I-15] | System = GPR17 (Homo sapiens) | IC50 = ____
0.0316 to 0.316 µM

Form: Entry = COc1nc(Cl)c(F)cc1NS(=O)(=O)c1c[nH]c2nc(Cl)ccc12 [Example I-32] | System = GPR17 (Homo sapiens) | IC50 = ____
≤ 0.00316 µM

The values you see were collected from patent US11939319B2.
